What pKd was measured for each of the following?
target: Human Scribble PDZ1 domain (human, UniProt Q14160 700-816); experiment: ITC
Sequence (Q14160 700-816): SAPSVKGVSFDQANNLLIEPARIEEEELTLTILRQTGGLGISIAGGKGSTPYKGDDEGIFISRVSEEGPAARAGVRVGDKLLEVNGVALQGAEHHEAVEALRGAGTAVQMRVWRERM
Quick note: pKd values are minus log10 of concentrations in mol/L.

# pKd (binder: DEEASGPERPPALLQEEWETVM [PTHR PBM peptide, 22-mer] ) is 4.94

According to the records, this binder QEEWETVM [PTHR PBM peptide, 8-mer] displays pKd of 4.50
